Listed here: items and their measured pest or weed control at 1000 g/ha.
# Tested on: Eleusine indica (ELEIN)
# Assay Protocol: Post-emergence efficacy, glasshouse spray test
# Format: in vivo
# Measurement Conditions: Eleusine indica, post-emergence, 312 h; application rate 1000 g/Ha; evaluated after 13 days; read-out: Control of weed species ELEIN after post-emergence application (100=total damage to plant; 0=no damage to plant)
# Experimental: Seeds of a variety of test species were sown in standard soil in pots. […] After 13 days the test was evaluated (100=total damage to plant; 0=no damage to plant). […]
Kindly answer with a numeric value in %, unit omitted.

input: Name the recorded pest or weed control at 1000 g/ha for "O=S(=O)([O-])CC[n+]1ccc2ccc(C(F)(F)F)cc2n1" .
output: 30
